- Assay Procedure: gradient 5% acetonitrile 3 min, to 50% in 2 min, to 85% in 15 min, held 3 min, 100 µL/min
- Stated Conditions: column: Zorbax Extend-C18 2.1 x 50 mm; eluents: water / acetonitrile, 0.1% formic acid
Reported RP-LC retention time by item:

{"Molecule": "O=C(Cc1csc2nc(-c3cccc(Br)c3)cn12)Nc1cccc(F)c1", "RP-LC retention time / s": 1010}
{"Molecule": "Cc1noc(-c2cccc(OC3CN(S(=O)(=O)c4cn(C)cn4)C3)c2)n1", "RP-LC retention time / s": 746}
{"Molecule": "COc1cc2nc(C(=O)N3CCCCC3)cc(Nc3ccc(Br)cc3)c2cc1OC", "RP-LC retention time / s": 743}
{"Molecule": "O=C(c1ccc(Br)o1)N1CCC(c2cnn(-c3ccccc3)c2)CC1", "RP-LC retention time / s": 957}
{"Molecule": "CN(CCc1noc(COc2ccc(Cl)cc2)n1)C(=O)Nc1ccc(F)cc1", "RP-LC retention time / s": 934}
{"Molecule": "CC1CCN(S(=O)(=O)c2ccc3nn(Cc4ccccc4F)c(=O)n3c2)CC1", "RP-LC retention time / s": 653}
{"Molecule": "Cc1nn(C)c(C)c1CCCN(C)C(=O)c1cccc(N2CCNC(c3ccccc3)C2)n1 (centres undefined)", "RP-LC retention time / s": 558}
{"Molecule": "Cc1ccccc1Oc1nccn2c(=O)n(CC(=O)Nc3ccc(F)cc3F)nc12", "RP-LC retention time / s": 829}
{"Molecule": "Nc1cc(=O)nc(SCC(=O)Nc2nc(-c3ccccc3)cs2)n1-c1ccccc1", "RP-LC retention time / s": 727}

* * *

Entries and their RP-LC retention time values follow.
- Assay Procedure: gradient 5% acetonitrile 3 min, to 50% in 2 min, to 85% in 15 min, held 3 min, 100 µL/min
- Stated Conditions: column: Zorbax Extend-C18 2.1 x 50 mm; eluents: water / acetonitrile, 0.1% formic acid

{"Compound": "CCOc1ccc2nc(C(=O)N3CCN(c4ccc(Cl)cc4)CC3)cn2n1", "RP-LC retention time [s]": 1000}
{"Compound": "Cc1ccccc1Nc1c(-c2cc(Br)ccc2F)nc2c(C)cccn12", "RP-LC retention time [s]": 843}
{"Compound": "O=C(CSc1ncccn1)N1CCc2ccccc21", "RP-LC retention time [s]": 720}
{"Compound": "Cc1cccnc1NC(=O)C1CCN(S(=O)(=O)c2cn(C(C)C)cn2)CC1", "RP-LC retention time [s]": 591}
{"Compound": "O=C(Nc1ccccn1)C1CCCN(S(=O)(=O)c2cc(-c3noc(C4CCC4)n3)cs2)C1 (stereo not given)", "RP-LC retention time [s]": 978}
{"Compound": "COC(=O)CNC(=O)c1cc2c(=O)n(CC(C)C)c3ccccc3n2n1", "RP-LC retention time [s]": 807}
{"Compound": "CN1CCCn2nc(C3CCN(C(=O)c4cccc(C(F)(F)F)c4)CC3)cc2C1=O", "RP-LC retention time [s]": 718}
{"Compound": "CC(CCc1ccccc1)NC(=O)CCC(=O)N1CCCn2nc(-c3cccn3C)cc21 (stereo not given)", "RP-LC retention time [s]": 842}
{"Compound": "CC(C)(C)NC(=O)C(=O)NCC1CCN(C(=O)COc2ccccc2)CC1", "RP-LC retention time [s]": 747}
{"Compound": "COc1ccc(-n2/c(=N/C(=S)N(C)C)ss/c2=N\\C(=S)N(C)C)cc1", "RP-LC retention time [s]": 1210}

* * *

- Assay Procedure: gradient 5% acetonitrile 3 min, to 50% in 2 min, to 85% in 15 min, held 3 min, 100 µL/min
- Stated Conditions: column: Zorbax Extend-C18 2.1 x 50 mm; eluents: water / acetonitrile, 0.1% formic acid
Each item that follows carries a reported RP-LC retention time.

{"Compound": "CCN(Cc1ccccc1)C(=O)Cn1nc(C)c2sc(-c3ccccc3)nc2c1=O", "RP-LC retention time, s": 1000}
{"Compound": "O=C(NCCN1CCCCC1)c1cc2n(n1)CCCN(Cc1ccc(Cl)cc1)C2=O", "RP-LC retention time, s": 642}
{"Compound": "O=C(c1ccccc1)N1CCN(c2cc(-c3cccs3)[nH]n2)CC1", "RP-LC retention time, s": 754}
{"Compound": "CCOC(=O)c1c(C)oc2ncnc(NCc3ccc4c(c3)OCO4)c12", "RP-LC retention time, s": 1050}
{"Compound": "COc1ccc(OCc2nc(-c3ccc(NS(=O)(=O)c4cccs4)cc3)no2)cc1", "RP-LC retention time, s": 1040}
{"Compound": "CCN1CCCCc2cc(C(=O)NCC(F)F)sc21", "RP-LC retention time, s": 892}
{"Compound": "Cc1ccc(C(=O)NCc2nc(-c3ccc(-c4csc(C5CC5)n4)cc3)no2)cc1", "RP-LC retention time, s": 1110}
{"Compound": "Cc1noc(CNC(=O)c2cc(-c3cccs3)[nH]n2)n1", "RP-LC retention time, s": 641}
{"Compound": "O=C(Cc1c(F)cccc1Cl)NC1CCN(c2cc(-c3ccccc3)[nH]n2)C1 (stereo not given)", "RP-LC retention time, s": 638}
{"Compound": "CCN(C(=O)c1cc2c(s1)N(CCOC)CCCC2)C(C)C", "RP-LC retention time, s": 1070}

* * *

List of RP-LC retention time values.
- Assay Procedure: gradient 5% acetonitrile 3 min, to 50% in 2 min, to 85% in 15 min, held 3 min, 100 µL/min
- Stated Conditions: column: Zorbax Extend-C18 2.1 x 50 mm; eluents: water / acetonitrile, 0.1% formic acid

{"Compound": "CN1c2cc(F)ccc2C(=O)NC12CCN(C(=O)Nc1ccccc1F)CC2", "U": "s", "RP-LC retention time": 735}
{"Compound": "Cc1sc(-c2cc(C(F)(F)F)[nH]n2)cc1S(=O)(=O)NCCc1cccs1", "U": "s", "RP-LC retention time": 990}
{"Compound": "CN(CC1CCOCC1)C(=O)Cc1ccc(F)cc1", "U": "s", "RP-LC retention time": 687}
{"Compound": "COc1nccnc1N1CCC(NC(=O)COc2ccc(F)cc2)C1 (stereo not given)", "U": "s", "RP-LC retention time": 726}
{"Compound": "O=c1n(Cc2cccc(F)c2)nc2c(-c3nc(-c4cccc(F)c4)no3)cccn12", "U": "s", "RP-LC retention time": 1030}
{"Compound": "CCCc1cc(N2CCN(C(=O)c3ccsc3)CC2)nc2nnc(CC)n12", "U": "s", "RP-LC retention time": 624}
{"Compound": "CCc1ccccc1NC(=O)C1(C)Oc2cccnc2N(C(C)C)C1=O (stereo not given)", "U": "s", "RP-LC retention time": 1010}
{"Compound": "Cc1noc(C)c1S(=O)(=O)N1CCC2(CC1)CC(Cc1ccc(F)cc1)CCO2 (stereo not given)", "U": "s", "RP-LC retention time": 1150}
{"Compound": "CC(C)OCCCNC(=O)C(=O)Nc1ccc(C(C)C)cc1", "U": "s", "RP-LC retention time": 983}
{"Compound": "CC(=O)N1CCc2ccccc2C1C(=O)NCc1cccs1 (stereo not given)", "U": "s", "RP-LC retention time": 720}
{"Compound": "O=S(=O)(Cc1ccccc1)N1CCC(c2noc(COCc3ccccc3)n2)CC1", "U": "s", "RP-LC retention time": 1060}
{"Compound": "CCN(C(=O)C1CCN(S(=O)(=O)c2ccc3c(c2)NC(=O)CO3)CC1)c1ccccc1", "U": "s", "RP-LC retention time": 794}
{"Compound": "O=C(CC1CCCCC1)N1CCN(c2nc(CN3CCCCC3)cs2)CC1", "U": "s", "RP-LC retention time": 675}
{"Compound": "COc1ccccc1CNC(=O)c1cc(C)nn1-c1ccccc1", "U": "s", "RP-LC retention time": 809}
{"Compound": "COc1cccc(S(=O)(=O)NCc2ccc(C(=O)Nc3cccc(Cl)c3)cc2)c1", "U": "s", "RP-LC retention time": 922}
{"Compound": "CCCCOc1ccc(C(=O)N2CCN(c3cc(C)nc(N4CCCCC4)n3)CC2)cc1", "U": "s", "RP-LC retention time": 816}
{"Compound": "O=C(CCSc1ccccc1)NCCOc1ccc2nnc(-c3ccccc3)n2n1", "U": "s", "RP-LC retention time": 736}
{"Compound": "CCOc1ccc(-n2nnc(C(=O)Nc3cccc(Cl)c3C)c2C)cc1", "U": "s", "RP-LC retention time": 1120}
{"Compound": "CCCN(CC1CCOC1)S(=O)(=O)c1ccccc1CC (stereo not given)", "U": "s", "RP-LC retention time": 992}
{"Compound": "COc1cc(C(=O)Nc2nc(-c3ccc(C)cc3)cs2)c(Br)c(OC)c1OC", "U": "s", "RP-LC retention time": 1120}
